Source listed as patent US20240116985A1.

Target: full-length beta-Catenin (Uniprot ID P35222) (Homo sapiens)
Construct: 10 nM full-length beta-Catenin (Uniprot ID P35222)
Sequence (P35222 1-781): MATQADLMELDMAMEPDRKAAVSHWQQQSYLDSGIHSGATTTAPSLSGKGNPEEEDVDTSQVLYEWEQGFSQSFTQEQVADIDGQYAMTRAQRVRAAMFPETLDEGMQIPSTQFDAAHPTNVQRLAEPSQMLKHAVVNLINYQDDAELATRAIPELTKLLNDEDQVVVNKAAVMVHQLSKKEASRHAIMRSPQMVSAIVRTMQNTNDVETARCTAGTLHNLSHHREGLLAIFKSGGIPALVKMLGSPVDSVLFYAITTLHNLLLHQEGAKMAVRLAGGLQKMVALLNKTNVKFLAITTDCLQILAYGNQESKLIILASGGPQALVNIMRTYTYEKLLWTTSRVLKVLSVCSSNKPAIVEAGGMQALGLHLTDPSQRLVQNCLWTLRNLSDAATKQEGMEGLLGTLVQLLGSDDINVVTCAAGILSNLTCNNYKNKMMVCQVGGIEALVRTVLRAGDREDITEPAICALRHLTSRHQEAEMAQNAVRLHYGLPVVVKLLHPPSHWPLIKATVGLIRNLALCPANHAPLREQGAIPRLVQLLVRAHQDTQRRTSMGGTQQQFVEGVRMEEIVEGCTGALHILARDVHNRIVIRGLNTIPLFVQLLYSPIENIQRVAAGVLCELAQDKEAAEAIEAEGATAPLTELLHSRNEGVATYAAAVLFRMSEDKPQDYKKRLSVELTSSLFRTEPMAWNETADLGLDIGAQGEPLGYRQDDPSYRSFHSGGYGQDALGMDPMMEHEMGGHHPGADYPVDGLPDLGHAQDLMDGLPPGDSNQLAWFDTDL
Assay: Fluorescence polarization IC50 (beta-catenin / 5FAM-TCF4 10-53 competition)
Assay type: binding
Conditions: fluorescence polarization; read-out: beta-Catenin FP IC50
For each of the compounds below, state its log10(IC50).
Scale: log10; quantity: IC50; unit before log: nM

Would you be so kind as to report log10(IC50) for each listed record?
1. CC(=O)N1CCC[C@]12CC=CCCCC1(CCCC=CCCCOC(=O)N3CC[C@@](C(=O)N[C@@H](Cc4ccccc4)C(=O)N[C@@H](Cc4csc5ccccc45)C(=O)N[C@@H](CCO)C(N)=O)(C3)NC(=O)[C@H](CCO)NC(=O)[C@H](Cc3ccccc3)NC(=O)[C@H](C)NC(=O)[C@H](CCCCNC(C)C)NC(=O)[C@H](CCC(N)=O)NC(=O)[C@H](CC(=O)O)NC1=O)NC(=O)[C@H](CC1CCCCC1)NC(=O)[C@H](CC(N)=O)NC2=O (stereo partly drawn)
2. CC(=O)N1CCC[C@]12CC=CCCCC1(CCCC=CCCCOC(=O)N3CC[C@@](C(=O)N[C@@H](Cc4ccccc4Cl)C(=O)N[C@@H](Cc4csc5ccccc45)C(=O)N[C@@H](CCC(N)=O)C(N)=O)(C3)NC(=O)[C@H](CC(N)=O)NC(=O)[C@H](Cc3ccccc3)NC(=O)[C@H](C)NC(=O)[C@H](C)NC(=O)[C@H](CN(CC(=O)O)Cc3c(F)c(F)c(F)c(F)c3F)NC(=O)[C@H](CC(=O)O)NC1=O)NC(=O)[C@H](CC(C)(C)C)NC(=O)[C@H](CC(=O)O)NC2=O (stereo partly drawn) [I-1450]

1. 2.66
2. 1.04

Would you be so kind as to report log10(IC50) for each listed record?
1. CC(=O)N1CCC[C@]12CC=CCCCC1(CCCC=CCCCCCC[C@@](C)(C(=O)N[C@@H](Cc3ccsc3)C(=O)N[C@@H](Cc3csc4ccccc34)C(=O)N[C@@H](CCC(N)=O)C(N)=O)NC(=O)[C@H](CC(N)=O)NC(=O)[C@H](Cc3ccccc3)NC(=O)[C@H](C)NC(=O)[C@H](C)NC(=O)[C@H](CC(=O)O)NC(=O)[C@H](CC(=O)O)NC1=O)NC(=O)[C@H](CC(C)C)NC(=O)[C@H](CC(=O)O)NC2=O (stereo partly drawn) [I-680]
2. CC(=O)N1CCC[C@]12CC=CCCCC1(CCCC=CCCCOC(=O)N3CC[C@@](C(=O)N[C@@H](Cc4ccsc4)C(=O)N[C@@H](Cc4cccc5ccccc45)C(=O)N[C@@H](CCC(N)=O)C(N)=O)(C3)NC(=O)[C@H](CC(C)C)NC(=O)[C@H](Cc3ccccc3)NC(=O)[C@H](C)NC(=O)[C@H](C)NC(=O)[C@H](CC(=O)O)NC(=O)[C@H](CC(=O)O)NC1=O)NC(=O)[C@H](CC(C)(C)C)NC(=O)[C@H](CC(=O)O)NC2=O (stereo partly drawn)
3. CC(=O)N1CCC[C@]12CC=CCCCC1(CCCC=CCCCCCC[C@@](C)(C(=O)N[C@@H](Cc3ccccc3)C(=O)N[C@@H](Cc3csc4ccccc34)C(=O)N[C@@H](CCC(N)=O)C(N)=O)NC(=O)[C@H](CCC(N)=O)NC(=O)[C@H](Cc3ccccc3)NC(=O)[C@H](C)NC(=O)[C@H](C)NC(=O)[C@H](CCC(=O)O)NC(=O)[C@H](CC(=O)O)NC1=O)NC(=O)[C@H](CCC(N)=O)NC(=O)[C@H](CC(=O)O)NC2=O (stereo partly drawn) [I-1540]

1. 1.51
2. 1.61
3. 1.23
